test system: S. marcescens IAM 1184; experiment: in vitro antibacterial activity, agar plate dilution method (MIC); assay type: cell-based; settings: Serratia marcescens, IAM1184, 16 h, read-out: Minimum Inhibitory Concentration (MIC)
observed property: MIC (µg/mL)
Number only, in µg/mL; omit the unit.

Illustrative cases are given below, each with its answer.
>>> endpoint_value("NC(=O)c1ccc(COC2=C(C(=O)[O-])N3C(=O)[C@@H](NC(=O)/C(=N\\OCC(=O)[O-])c4csc(N)n4)[C@H]3SC2)cc1.[Na+].[Na+] [Example 22]")
0.0125
>>> endpoint_value("CO/N=C(\\C(=O)N[C@@H]1C(=O)N2C(C(=O)[O-])=C(OCc3ccncc3)CS[C@H]12)c1csc(N)n1.[Na+] [Example 1]")
0.1
>>> endpoint_value("CO/N=C(\\C(=O)N[C@@H]1C(=O)N2C(C(=O)[O-])=C(OCc3ccc(C#N)cc3)CS[C@H]12)c1csc(N)n1.[Na+] [Example 12]")
0.39
>>> endpoint_value("CC(C)(O/N=C(\\C(=O)N[C@@H]1C(=O)N2C(C(=O)O)=C(OCc3ccncc3)CS[C@H]12)c1csc(N)n1)C(=O)O [Example 4]")
0.025

What does the record list as MIC for CO/N=C(\C(=O)N[C@@H]1C(=O)N2C(C(=O)[O-])=C(OCc3nc(C)cs3)CS[C@H]12)c1csc(N)n1.[Na+] [Example 16] ?
0.2

###

system: E. cloacae 963; experiment: in vitro antibacterial activity, agar plate dilution method (MIC); type: cell-based; conditions: Enterobacter cloacae; E. cloacae 963; 10^6 CFU/ml, MH agar, 37° C., 16 hours; read-out: Minimum Inhibitory Concentration (MIC)
Each entry below carries its recorded MIC.
Number only, in µg/mL; omit the unit.

>>> endpoint_value("CO/N=C(\\C(=O)N[C@@H]1C(=O)N2C(C(=O)O)=C(OCc3ccc(C(N)=O)cc3)CS[C@H]12)c1csc(N)n1 [Example 14]")
0.2

What does the record list as MIC for CO/N=C(\C(=O)N[C@@H]1C(=O)N2C(C(=O)[O-])=C(OCc3cccc[n+]3C)CS[C@H]12)c1csc(N)n1 [Example 44] ?
0.2

What does the record list as MIC for C[n+]1ccc(COC2=C(C(=O)[O-])N3C(=O)[C@@H](NC(=O)/C(=N\OC(C)(C)C(=O)O)c4csc(N)n4)[C@H]3SC2)cc1 [Example 36] ?
0.05

###

Each entry below carries its recorded MIC.
tested on: P. vulgaris HX-19; assay: in vitro antibacterial activity, agar plate dilution method (MIC); type: cell-based; conditions: Proteus vulgaris, HX19, 16 h, read-out: Minimum Inhibitory Concentration (MIC)
Number only, in µg/mL; omit the unit.

Illustrative cases are given below, each with its answer.
>>> endpoint_value("CO/N=C(\\C(=O)N[C@@H]1C(=O)N2C(C(=O)[O-])=C(OCc3ccc(C#N)cc3)CS[C@H]12)c1csc(N)n1.[Na+]")
0.025
>>> endpoint_value("CO/N=C(\\C(=O)N[C@@H]1C(=O)N2C(C(=O)[O-])=C(OCc3ccncc3)CS[C@H]12)c1csc(N)n1.[Na+]")
0.05

Query the reported MIC for P. vulgaris HX-19; item: NC(=O)c1ccc(COC2=C(C(=O)[O-])N3C(=O)[C@@H](NC(=O)/C(=N\OCC(=O)[O-])c4csc(N)n4)[C@H]3SC2)cc1.[Na+].[Na+]
0.025
